# Test system: c-myc in 22RV-1 cells
# test.protocol: Human c-myc ELISA assay
# Type: cell-based
# experimental.conditions: Homo sapiens, 22Rv1, 18 h, read-out: Degradation of BRD4: Maximum inhibition (%) c-Myc ELISA in 22RV1 cells
# Emax listing for each entry below
measured.quantity: Emax (%)

structure: Cc1ncsc1-c1ccc([C@H](C)NC(=O)[C@@H]2C[C@@H](O)CN2C(=O)[C@@H](NC(=O)CN2CCC(O[C@H]3C[C@H](NC(=O)c4ccc5c6ncc(-c7c(C)noc7C)cc6n([C@@H](c6ccccc6)C6CCOCC6)c5c4)C3)CC2)C(C)(C)C)cc1
quantitative.result: 100

structure: Cc1ncsc1-c1ccc([C@H](C)NC(=O)[C@@H]2C[C@@H](O)CN2C(=O)[C@@H](NC(=O)/C=C/c2cccc(O[C@H](C)CNC(=O)C[C@@H]3N=C(c4ccc(Cl)cc4)c4c(sc(C)c4C)-n4c(C)nnc43)c2)C(C)(C)C)cc1
quantitative.result: 96.5
